Experiment: qHTS profiling of the MIPE4 collection as inhibitors of Plasmodium falciparum (3D7) proliferation (AID 743344)
Settings: P. falciparum 3D7 in erythrocytes, SYBR Green DNA fluorescence, 72 h; at 28.5 µM unless noted
Rule: parasite growth, % of DMSO control of 20% or more gives fulfilled; anything lower gives not fulfilled.

*Q* Confirm if parasite growth, % of DMSO control reported for the compound `C=CC(=O)N1CCc2ccc(-n3c(=O)ccc4cnc5ccc(-c6cnn(C)c6)cc5c43)cc21` is 20% or above.
*A* not fulfilled

*Q* Check the entry `C=CC(=O)Nc1ccc2ncnc(Nc3ccc(OCc4cccc(F)c4)c(Cl)c3)c2c1` : does parasite growth, % of DMSO control equal or exceed 20%?
*A* not fulfilled

*Q* Item `CO[C@@H]1[C@@H](O)[C@H](O)[C@@H](n2c3c(Cl)cccc3c3c4c(c5c6cccc(Cl)c6[nH]c5c32)C(=O)NC4=O)O[C@@H]1CO` with parasite growth, % of DMSO control of 20% or above?
*A* not fulfilled

*Q* Can `Cc1onc(-c2ccccc2)c1C(=O)N[C@@H]1C(=O)N2[C@@H](C(=O)O)C(C)(C)S[C@@H]12` be said to have parasite growth, % of DMSO control at or above 20%?
*A* fulfilled

*Q* Is it the case that `Oc1ccc(-c2ccc(-c3cc(Nc4cccc(CNC5CC5)c4)n[nH]3)cc2)c(O)c1` has parasite growth, % of DMSO control reaching or exceeding 20%?
*A* not fulfilled

*Q* Does the reported parasite growth, % of DMSO control for `CC(=O)ON=C1C(c2c(O)[nH]c3cc(Br)ccc23)=Nc2ccccc21` fall at or above the 20% mark?
*A* not fulfilled

*Q* Given the entry `CCNC(=O)Nc1ccc(-c2nc3c(c(N4CCOC[C@H]4C)n2)CCN(C2COC2)C3)cc1` , answer whether its parasite growth, % of DMSO control meets or surpasses 20%.
*A* fulfilled

*Q* Would you say `CC(C=CC(=O)NO)=C[C@@H](C)C(=O)c1ccc(N(C)C)cc1` shows parasite growth, % of DMSO control at minimum 20%?
*A* not fulfilled

*Q* Say whether `c1cncc(CN2CCC(n3ncc4c(N5CCOCC5)nc(-c5ccc6[nH]ccc6c5)nc43)CC2)c1` shows parasite growth, % of DMSO control of 20% or more.
*A* not fulfilled

*Q* hey, is parasite growth, % of DMSO control for this one >= 20%? `O=C1NCCc2[nH]c(-c3ccncc3)cc21`
*A* fulfilled

*Q* Identify whether the reported parasite growth, % of DMSO control of the following compound is 20% or greater: Cc1noc(-c2ccc(CSCCC(=O)O)cc2)c1NC(=O)OC(C)c1ccccc1Cl (stereo not drawn)
*A* fulfilled

*Q* Exam item: decide whether the reported parasite growth, % of DMSO control for O=C1CSC(=O)N1C(CCc1ccncc1)COc1ccc(-c2cccc([N+](=O)[O-])c2)cc1 (stereo not drawn) is at least 20%.
*A* not fulfilled

*Q* Given the entry `C=Cc1c(C)c2cc3nc(cc4[nH]c(cc5nc(cc1[nH]2)C(C)=C5CCC(=O)O)c(CCC(=O)OC)c4C)[C@@]1(C)C3=CC=C(C(=O)OC)[C@H]1C(=O)OC` , answer whether its parasite growth, % of DMSO control meets or surpasses 20%.
*A* not fulfilled

*Q* Form field: parasite growth, % of DMSO control at least 20%? Entry: `CC(C)(C)[N+]([O-])=Cc1ccc(S(=O)(=O)O)cc1S(=O)(=O)O`
*A* fulfilled

*Q* Dear colleague, could you confirm whether `Cn1cc(CNCC2CCN(c3ncc(C(=O)NO)cn3)CC2)c2ccccc21` has parasite growth, % of DMSO control at or above 20%?
*A* not fulfilled

*Q* Evaluate `COc1ccc(C[C@@H](C)[C@@H](C)Cc2ccc(OC)c(OC)c2)cc1OC` : parasite growth, % of DMSO control at minimum 20%?
*A* fulfilled

*Q* I'd appreciate it if you could say whether `Cc1ccc(-n2[nH]c(C)c(N=Nc3cccc(-c4cccc(C(=O)O)c4)c3O)c2=O)cc1C` has parasite growth, % of DMSO control at least equal to 20%.
*A* fulfilled

*Q* Hi, just wondering whether `COc1ccc(Nc2cc(-c3cnc(N)nc3)nc(N3CCOCC3)n2)cn1` shows parasite growth, % of DMSO control of 20% or higher.
*A* not fulfilled
